Each entry below carries its reported Loop %-fold χF (value in parentheses).
Assay: Loop %-folding by 1H NMR from glycine Hα/α' splitting
Type: physicochemical
Conditions: 291 K; ΔδHα/α'G(L4) model with 0.33 ppm as fully-folded state (model of ref 27)
No end group written: not given here.
Use % as the unit, but write only the number.

substance | readout unit | Loop %-fold χF (value in parentheses)
RWHWNPATGKWVWE [3b] | % | 167
Ac-WVWNPATGKWVW-NH2 [2a] | % | 154
RWNPATGKWE [3c] | % | 139
Ac-WVWGPGTGKWVW-NH2 [2b] | % | 9

Entry under review: Ac-WNPATGKWTG-NH2 [1a] . Reported Loop %-fold χF (value in parentheses)?
70

Next substance up: RWVWNPATGKWVWE [3a]
154

Next substance up: Ac-WTFNPATGKFKWTG-NH2 [1c]
151

* * *

Assay: Kinetic solubility in phosphate buffer
Type: physicochemical
Settings: phosphate buffer (PB, 50 mM), pH 7.4
No end group written: not given here.
measured quantity: solubility (mM)
Use mM as the unit, but write only the number.

Entry under review: RWHWNPATGKWVWE [3b] . Reported solubility?
56.3

Next substance up: Ac-WVWGPGTGKWVW-NH2 [2b]
0.8

Next substance up: RWVWGGGGKKGGGGWVWE [3d]
5.8

Next substance up: Ac-WDDATKTWTG-NH2 [1b]
35.3

Next substance up: RWNPATGKWE [3c]
39.5

Next substance up: RWVWNPATGKWVWE [3a]
27.1

Next substance up: RWVWRDYRGDMGFDWVWE [3f]
8.2

Next substance up: RWVWRDYRFDMGFDWVWE [3e]
0.6

Next substance up: Ac-WTFNPATGKFKWTG-NH2 [1c]
22.3

Next substance up: Ac-WNPATGKWTG-NH2 [1a]
2.9

Next substance up: Ac-WVWNPATGKWVW-NH2 [2a]
1.2

* * *

Experiment: CD thermal denaturation
Format: physicochemical
Conditions: local β-strap folding at 291 K (18 °C) from best-fitted melting curves of [θ(T)]228; phosphate buffer 15 mM, pH 6.5
No end group written: not given here.
measured quantity: β-Strap %-fold χF at 291K
Please make sure the unit comes right after the number.

substance | β-Strap %-fold χF at 291K
RWVWRDYRFDMGFDWVWE [3e] | 55 ± 1%
RWVWGGGGKKGGGGWVWE [3d] | 88 ± 1%
Ac-WVWNPATGKWVW-NH2 [2a] | 99 ± 1%
RWVWRDYRGDMGFDWVWE [3f] | 82 ± 1%
Ac-WNPATGKWTG-NH2 [1a] | 28 ± 1%

Entry under review: Ac-WDDATKTWTG-NH2 [1b] . Reported β-Strap %-fold χF at 291K?
54 ± 7%

Next substance up: Ac-WVWGPGTGKWVW-NH2 [2b]
56 ± 1%

Next substance up: Ac-WTFNPATGKFKWTG-NH2 [1c]
63 ± 4%

Next substance up: RWNPATGKWE [3c]
84 ± 11%

Next substance up: RWHWNPATGKWVWE [3b]
95 ± 2%

Next substance up: RWVWNPATGKWVWE [3a]
89 ± 14%
